# target: Hepatocyte nuclear factor 6 (Homo sapiens)
# procedureDetails: ATG_HNF6_CIS: Attagene CIS-FACTORIAL HepG2 Assay for human Hepatocyte Nuclear Factor 6 (HNF6) (AID 2282952)
# testContext: HepG2 Attagene cis-factorial HNF6 reporter transcription; actives raise or lower the signal
Activity calls are given as the source filed them. The calls were made as follows: active = hit-call score of the fitted dose curve at least 0.9, where 1 is the maximum; inactive = score below 0.9.
experimentalEndpoint: outcome

CN(C)c1ccc(C=O)cc1    inactive
C=CCOCC(O)CO (stereo not drawn)    inactive
CC(=N[Si](C)(C)C)O[Si](C)(C)C    inactive

====

# Read-out: Interleukin-8 (IL8), CXCL8 (gene 3576)
# procedureDetails: BSK_LPS_IL8: BioMAP Diversity Plus: LPS Assay for Interleukin-8 (IL8) Biomarker Activity (AID 2283078)
# testContext: primary human HUVEC with PBMC; actives raise or lower the signal
The source made the active and inactive calls. The calls were made as follows: active = hit-call score of the fitted dose curve at least 0.9, where 1 is the maximum; inactive = score below 0.9.
Can you answer with just one of these options? true (1) for active, false (0) for inactive

// below: answered molecules
O=C(O)C(F)(F)OC(F)(F)C(F)(F)OC(F)(F)C(F)(F)C(F)(F)C(F)(F)F    false (0)
CC(C)(CO)CO    false (0)
C#C[C@]1(O)CC[C@H]2[C@@H]3CCc4cc(O)ccc4[C@H]3CC[C@@]21C    true (1)
CC1=CC(C)C(C=O)C(C)C1 (configuration not stated) (tested in a mixture with another compound)    false (0)
CCCCOCCOCCO    false (0)

As a next step, examine the molecule that follows.
Task: How was Nc1ccc(N)c([N+](=O)[O-])c1 classified in this test?
Output: false (0)

====

# target: human Retinoid X Receptor beta (RXRb), RXRB (gene 6257) (UniProt P28702)
# Sequence (P28702 whole entry, looked up): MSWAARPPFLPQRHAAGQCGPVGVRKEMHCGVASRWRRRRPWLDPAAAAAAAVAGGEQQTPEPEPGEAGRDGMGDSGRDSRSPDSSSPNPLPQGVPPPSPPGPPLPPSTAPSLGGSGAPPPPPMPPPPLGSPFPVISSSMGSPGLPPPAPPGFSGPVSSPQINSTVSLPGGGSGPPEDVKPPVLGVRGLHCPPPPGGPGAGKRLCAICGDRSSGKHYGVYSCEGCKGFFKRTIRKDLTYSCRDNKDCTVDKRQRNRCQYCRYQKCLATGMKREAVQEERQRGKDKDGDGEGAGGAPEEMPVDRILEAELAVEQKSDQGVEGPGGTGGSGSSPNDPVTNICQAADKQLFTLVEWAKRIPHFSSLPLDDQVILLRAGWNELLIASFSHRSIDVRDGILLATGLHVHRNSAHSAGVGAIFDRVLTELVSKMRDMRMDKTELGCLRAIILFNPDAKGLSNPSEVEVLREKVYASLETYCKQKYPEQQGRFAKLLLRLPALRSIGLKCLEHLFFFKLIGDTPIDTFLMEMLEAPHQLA
# procedureDetails: ATG_RXRb_TRANS: Attagene TRANS-FACTORIAL HepG2 Assay for human Retinoid X Receptor beta (RXRb) (AID 2283013)
Inconclusive results are not listed. Active and inactive are the calls of the source. The calls were made as follows: active = hit-call score of the fitted dose curve at least 0.9, where 1 is the maximum; inconclusive = response in the unintended direction; inactive = score below 0.9.
Answer with one of the outcomes given here: active, inactive

See these solved cases before continuing.
CCC(=O)OC(C)(C)C1CC=C(C)CC1 (stereo unspecified)    inactive
C[C@]12CC[C@@H]3c4ccc(O)cc4CC[C@H]3[C@@H]1CC[C@@H]2O    inactive
CCCCCCCCCCCCCCCCCC(=O)OCCCCCCCCCCCCCC(C)C    inactive
CC(C)CCOC(=O)CC(C)C    active
CC(CO)c1ccccc1 (stereo unspecified)    inactive
c1ccc2c(c1)-c1ccc3ccc4cccc5cc-2c1c3c45    inactive
CC(C)C(=O)c1ccccc1    inactive
CC(CCO)CC(C)(C)C (stereo unspecified)    inactive
COc1ccc(N)c(C)c1    inactive
CCCCCCOc1ccc(O)cc1    inactive

Please look at the following compound next.
Task: What is the recorded call for this compound in the test? CCCCCCC(C)O (stereo unspecified)
Output: inactive

====

# target: Retinoic acid receptor RXR-alpha (Homo sapiens) (UniProt P19793)
# Sequence (P19793 whole entry, looked up): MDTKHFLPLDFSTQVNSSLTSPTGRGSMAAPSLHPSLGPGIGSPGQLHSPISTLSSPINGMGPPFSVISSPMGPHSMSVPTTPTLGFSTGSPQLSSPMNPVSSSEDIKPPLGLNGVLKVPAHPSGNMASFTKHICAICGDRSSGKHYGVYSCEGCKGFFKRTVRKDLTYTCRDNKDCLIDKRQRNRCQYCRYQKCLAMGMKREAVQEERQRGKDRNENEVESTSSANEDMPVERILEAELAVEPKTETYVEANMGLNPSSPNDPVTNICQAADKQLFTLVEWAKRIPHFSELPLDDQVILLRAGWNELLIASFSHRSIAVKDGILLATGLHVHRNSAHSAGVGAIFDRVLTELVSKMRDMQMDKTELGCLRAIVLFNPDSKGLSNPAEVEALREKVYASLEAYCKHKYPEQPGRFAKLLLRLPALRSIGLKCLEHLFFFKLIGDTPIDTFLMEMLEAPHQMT
# procedureDetails: OT_NURR1_NURR1RXRa_0480: Odyssey Thera (OT) 8-hour HEK293T Protein Complementation Assay for Nurr1/retinoid X receptor (RXR) (AID 2283385)
Results filed as inconclusive are left out. The source made the active and inactive calls. How the source made its calls: active means hit-call score of the fitted dose curve at least 0.9, where 1 is the maximum; inconclusive means response in the unintended direction; inactive means score below 0.9.
Hi there, use one of these labels in your reply, thanks! 1.0 = active, 0.0 = inactive

CCCCOCCOCCOCCO    0.0
COc1ccc(OC)cc1    0.0
NC(N)=S    0.0
CCCCC/C=C\C=C\C(=O)OCC    0.0
CCCC1CCC(=O)CC1    0.0
CCC(C)(C)C1CCC(OC)CC1 (stereo not drawn)    0.0

Task: How was c1ccc(Cc2ccccc2)cc1 classified in this test?
Output: 0.0

Task: I'd appreciate the recorded outcome for CC(C)(C)c1cccc(O)c1 from this test.
Output: 0.0

====

# procedureDetails: ATG_FoxO_CIS: Attagene CIS-FACTORIAL HepG2 Assay for human Forkhead box O (FoxO) (AID 2282943)
# testContext: HepG2 Attagene cis-reporter, FoxO element, mRNA; actives raise or lower the signal
Active and inactive are the calls of the source. Rule for the calls: active = hit-call score of the fitted dose curve at least 0.9, where 1 is the maximum; inactive = score below 0.9.
Mark one answer only. Choices: 1 (yes) = active, 0 (no) = inactive

Recorded results for 8 compounds are shown here.
Brc1cc(Br)cc(Br)c1    0 (no)
CCCCCCCOC(C)=O    0 (no)
Cc1cccc(C)c1    0 (no)
C[C@H](CCC(=O)O)[C@H]1CC[C@H]2[C@@H]3CC[C@@H]4C[C@H](O)CC[C@]4(C)[C@H]3CC[C@]12C    0 (no)
CCCCCCCCOS(=O)(=O)O    0 (no)
OC[C@@H](O)[C@H](O)[C@@H](O)[C@@H](O)CO    0 (no)
C=CC(O)CCCCC (centres undefined)    1 (yes)
Cc1cc(N)n(-c2ccccc2)n1    0 (no)

Task: Call for entry CCC(CC)CO :
Output: 0 (no)

Task: Lab log entry: c1coc(CNc2ncnc3nc[nH]c23)c1 — outcome as called in the assay?
Output: 0 (no)

Task: Hi team, can someone confirm the assay call for C=C/C(C)=C/C/C=C(\C)CCC=C(C)C ?
Output: 0 (no)

Task: Please state the recorded outcome for this compound: CC(C)(C)c1cccc(O)c1
Output: 0 (no)

Task: Hi, sorry to bother you, what did the test record for CCCCOC(=O)C(C)OC(=O)CCC (centres undefined) ?
Output: 0 (no)

Task: Which outcome was assigned to CC(=O)c1ccc(C)cc1 in this test?
Output: 0 (no)

Task: Which outcome was assigned to C=C(C)CCCC(C)CCO (centres undefined) in this test?
Output: 0 (no)

Task: // param item: CC(C)(O)CCc1ccccc1 ; yields the recorded call
Output: 0 (no)

Task: Outcome? CCCCOCC(C)OCC(C)O (centres undefined)
Output: 0 (no)

Task: # outcome recorded in this test, key = CC(C)Cc1ccc(C(C)C(=O)O)cc1 (centres undefined)
Output: 0 (no)

Task: Query: recorded result category for CCC(C)(CCCC(C)C)OC(C)=O (centres undefined) in this test
Output: 0 (no)

====

# procedureDetails: ATG_GLI_CIS: Attagene CIS-FACTORIAL HepG2 Assay for human Zinc Finger Protein GLI1 (AID 2282945)
# testContext: HepG2, Attagene cis-factorial reporter mRNA, GLI element; actives raise or lower the signal
Active and inactive are the calls of the source. How the source made its calls: active means hit-call score of the fitted dose curve at least 0.9, where 1 is the maximum; inactive means score below 0.9.
Please reply with one of these outcomes: active, inactive

Worked set:
C=C(C)CCCC(C)CCO (centres undefined)    inactive
CCCc1ccc(N)cc1    inactive
COC(=O)c1cccc(C(=O)OC)c1    inactive
OCCN1CCOCC1    inactive
CC(C)N(c1ccccc1)C(C)C    inactive
CC(=O)Oc1c(C)c(C)c2c(c1C)CC[C@@](C)(CCC[C@H](C)CCC[C@H](C)CCCC(C)C)O2    inactive
NC(=O)c1cccnc1    inactive
Cc1cc(N)n(-c2ccccc2)n1    inactive
CCC(C)(C)C1CCC(=O)CC1    inactive
CCCCCCCCCCO[C@@H]1O[C@H](CO)[C@@H](O)[C@H](O)[C@H]1O    inactive

Task: Status in this test for CC1=CC[C@@H]2C[C@H]1C2(C)C ?
Output: inactive

Task: Would you mind telling me which call this test gave CCCCCCCCSCc1cc(C)c(O)c(CSCCCCCCCC)c1 ?
Output: inactive

Task: What was the test verdict on CC(=O)Nc1cc(S(=O)(=O)O)cc2cc(S(=O)(=O)O)c(N=Nc3ccccc3)c(O)c12 ?
Output: inactive

Task: Per the records of this test, what outcome belongs to CCCO ?
Output: inactive

Task: Which outcome did this test record for the compound CC(=O)OCC=C(C)CCC=C(C)CCC=C(C)C ?
Output: active

====

# Read-out: E-selectin (Homo sapiens) (UniProt P16581)
# Sequence (P16581 whole entry, looked up): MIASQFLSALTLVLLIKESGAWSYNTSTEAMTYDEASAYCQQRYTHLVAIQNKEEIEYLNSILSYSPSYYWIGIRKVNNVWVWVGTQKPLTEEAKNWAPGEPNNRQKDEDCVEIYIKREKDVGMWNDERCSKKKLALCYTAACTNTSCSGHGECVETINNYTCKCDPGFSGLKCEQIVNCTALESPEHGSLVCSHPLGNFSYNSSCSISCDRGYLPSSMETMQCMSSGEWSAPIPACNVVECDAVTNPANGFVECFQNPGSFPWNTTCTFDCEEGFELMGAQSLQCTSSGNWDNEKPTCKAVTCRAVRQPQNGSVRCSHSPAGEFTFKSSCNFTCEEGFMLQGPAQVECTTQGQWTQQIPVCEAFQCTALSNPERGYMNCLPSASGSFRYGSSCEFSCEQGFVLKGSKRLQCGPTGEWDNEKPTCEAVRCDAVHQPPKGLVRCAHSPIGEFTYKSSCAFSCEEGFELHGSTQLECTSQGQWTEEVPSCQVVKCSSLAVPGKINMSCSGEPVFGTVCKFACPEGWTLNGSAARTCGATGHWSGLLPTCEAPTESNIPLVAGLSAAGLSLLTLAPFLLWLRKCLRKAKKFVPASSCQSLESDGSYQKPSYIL
# procedureDetails: BSK_SAg_Eselectin: BioMAP Diversity Plus: SAg Assay for Eselectin Biomarker Activity (AID 2283091)
# testContext: primary human HUVEC with PBMC; actives raise or lower the signal
Calls of active or inactive are those of the source. How the source made its calls: active means hit-call score of the fitted dose curve at least 0.9, where 1 is the maximum; inactive means score below 0.9.
Could you please pick one outcome from this set? active, inactive

Here's what some known entries look like.
CC1(C)[C@H](C=C(Cl)Cl)[C@H]1C(=O)OCc1cccc(Oc2ccccc2)c1    inactive
COc1ccccc1NC(=O)CC(C)=O    inactive
CCOC(=O)C=Cc1ccccc1    inactive
O=C(O)C(F)(F)C(F)(F)C(F)(F)C(F)(F)C(F)(F)C(F)(F)C(F)(F)C(F)F    inactive

Task: Entry CCCCCCCCCC(=O)OCC : call = ?
Output: active

Task: Recorded test outcome, item CC1=CC(C)C(C=O)C(C)C1 (configuration not stated) (tested in a mixture with another compound)
Output: inactive

Task: Called result for C[C@]12CC[C@@H]3c4ccc(O)cc4CC[C@H]3[C@@H]1CC[C@@H]2O
Output: inactive

====

# target: Nuclear receptor subfamily 4 group A member 2 (Homo sapiens) (UniProt P43354)
# Sequence (P43354 whole entry, looked up): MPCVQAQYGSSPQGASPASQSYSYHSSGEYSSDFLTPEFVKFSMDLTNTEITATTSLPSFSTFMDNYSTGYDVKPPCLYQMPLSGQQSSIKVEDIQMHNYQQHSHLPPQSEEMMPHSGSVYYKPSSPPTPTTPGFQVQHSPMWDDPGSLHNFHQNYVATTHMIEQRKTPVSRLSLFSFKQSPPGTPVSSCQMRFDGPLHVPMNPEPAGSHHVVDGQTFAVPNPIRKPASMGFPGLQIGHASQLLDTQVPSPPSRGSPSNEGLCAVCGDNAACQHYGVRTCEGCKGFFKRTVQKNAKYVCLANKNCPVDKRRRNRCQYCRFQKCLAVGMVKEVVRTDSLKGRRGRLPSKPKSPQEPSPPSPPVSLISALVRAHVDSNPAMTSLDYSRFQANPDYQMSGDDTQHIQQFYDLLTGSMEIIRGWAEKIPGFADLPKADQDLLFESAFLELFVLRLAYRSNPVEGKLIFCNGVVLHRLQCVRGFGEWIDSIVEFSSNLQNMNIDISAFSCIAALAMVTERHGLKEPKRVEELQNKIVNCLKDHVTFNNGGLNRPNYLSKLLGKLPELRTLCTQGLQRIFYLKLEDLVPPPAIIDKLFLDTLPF
# procedureDetails: ATG_NURR1_TRANS: Attagene TRANS-FACTORIAL HepG2 Assay for human Nuclear Receptor Related Protein 1 (NURR1) (AID 2282985)
# testContext: HepG2 Attagene TRANS reporter, mRNA readout
Results filed as inconclusive are left out. Activity calls are given as the source filed them. The calls were made as follows: active = hit-call score of the fitted dose curve at least 0.9, where 1 is the maximum; inconclusive = response in the unintended direction; inactive = score below 0.9.
Give one outcome, nothing more. List: YES for active, NO for inactive

Task: GET /call?item= CCCCCCCC(=O)N(C)C returns the recorded outcome of this test.
Output: NO

Task: For CC(C)(O)CCc1ccccc1 , which call appears in the assay record?
Output: NO

Task: Record lookup: outcome of this test for CCCCCCCC1CCCC1=O (stereo not given) ?
Output: NO

Task: In this assay, the call recorded for CCC(C)C1CCCCC1=O (stereo not given) was what?
Output: NO

Task: What was the test verdict on CCC(C)(C)C1CCC(OC)CC1 (stereo not given) ?
Output: NO
